Here the recorded self-splicing fitness (ln) is given for each entry.
Test: self-splicing fitness, log relative to wild type (ln ratio); higher = more splicing; Tetrahymena group I intron in knt gene, E. coli kanamycin selection, DiMSum; sequences stand for … in CUCUCU…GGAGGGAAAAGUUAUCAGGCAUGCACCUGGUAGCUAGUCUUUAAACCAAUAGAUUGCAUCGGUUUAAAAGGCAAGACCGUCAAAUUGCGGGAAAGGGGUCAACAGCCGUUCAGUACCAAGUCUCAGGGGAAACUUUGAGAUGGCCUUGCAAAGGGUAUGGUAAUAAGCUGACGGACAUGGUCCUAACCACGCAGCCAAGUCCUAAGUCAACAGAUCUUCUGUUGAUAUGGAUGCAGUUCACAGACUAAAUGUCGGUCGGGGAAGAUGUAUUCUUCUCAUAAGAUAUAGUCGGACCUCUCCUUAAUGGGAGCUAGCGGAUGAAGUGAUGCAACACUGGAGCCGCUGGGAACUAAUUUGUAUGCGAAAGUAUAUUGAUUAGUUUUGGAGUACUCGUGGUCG;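 note: selection with 25 µg/mL kanamycin versus none on LB agar overnight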
Settings: 30 °C
Field format: numeric only.

UUGUAGCAAUAUUACGGCAU    -0.835

self-splicing fitness (ln) lookup needed for "AGGUAGCAAUAUUACGGGAU" , thanks.
-2.75

self-splicing fitness (ln) lookup needed for "GCCCAGCAAUAUUACGUGGU" , thanks.
-4

self-splicing fitness (ln) lookup needed for "GCCAAGCAAUAUUACGUGAA" , thanks.
-0.726

self-splicing fitness (ln) lookup needed for "CCUUAGCAAUAUUACGGGAG" , thanks.
-3.19

---

Assay: self-splicing fitness, log relative to wild type (ln ratio); higher = more splicing; Tetrahymena group I intron in knt gene, E. coli kanamycin selection, DiMSum; sequences stand for … in CUCUCU…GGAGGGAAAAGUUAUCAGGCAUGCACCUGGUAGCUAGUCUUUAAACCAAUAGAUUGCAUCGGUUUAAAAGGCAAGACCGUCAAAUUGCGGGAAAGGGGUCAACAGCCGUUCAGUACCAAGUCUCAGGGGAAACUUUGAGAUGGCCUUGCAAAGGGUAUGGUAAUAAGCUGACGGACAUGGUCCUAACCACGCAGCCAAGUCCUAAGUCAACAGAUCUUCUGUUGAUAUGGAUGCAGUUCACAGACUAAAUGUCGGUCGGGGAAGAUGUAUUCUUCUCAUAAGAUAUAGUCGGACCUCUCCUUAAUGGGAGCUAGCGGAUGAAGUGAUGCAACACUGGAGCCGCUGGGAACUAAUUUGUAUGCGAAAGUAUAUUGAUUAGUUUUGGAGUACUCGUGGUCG
Conditions: 37 °C
observed.property: self-splicing fitness (ln)
Field format: numeric only.

Record excerpt, results attached:
CCCUAGCAAUAUUACGUGUC    -2.97
GGCUAGCAAUAUUACGACAC    0.6
CCAGAGCAAUAUUACGUAAG    -0.37
AAGUAGCAAUAUUACGCCCU    -0.639
AUUCAGCAAUAUUACGGUAU    -0.155

self-splicing fitness (ln) lookup needed for "GAAAAGCAAUAUUACGGAAU" , thanks.
-1.07

self-splicing fitness (ln) lookup needed for "UGGAAGCAAUAUUACGCUGG" , thanks.
-1.26

self-splicing fitness (ln) lookup needed for "CCGGAGCAAUAUUACGGAAC" , thanks.
-1.67

self-splicing fitness (ln) lookup needed for "UCCAAGCAAUAUUACGUUGC" , thanks.
-2.41

self-splicing fitness (ln) lookup needed for "UUUUAGCAAUAUUACGCUCC" , thanks.
-1.25
